Target: MAGE-A11:PCF11 interaction (GST-MAGE-A11 and FAM-PCF11_4) (Homo sapiens, UniProt P43364)
Construct: GST-MAGE-A11 MHD (human MAGE-A11 MHD amino acid 218-429); made in house; host or cells: E. coli BL21(DE3)
Sequence (P43364 218-429): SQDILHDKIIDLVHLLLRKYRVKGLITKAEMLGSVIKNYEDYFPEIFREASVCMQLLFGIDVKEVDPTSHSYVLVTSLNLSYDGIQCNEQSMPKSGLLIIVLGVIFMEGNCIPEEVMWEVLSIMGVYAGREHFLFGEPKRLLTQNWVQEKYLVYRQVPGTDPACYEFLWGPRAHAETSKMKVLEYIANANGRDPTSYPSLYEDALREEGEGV
Assay: TR-FRET primary / single point screen at 15 µM
Type: binding
Conditions: single point TR-FRET screening of 797 quinoline compounds against MAGE-A11:PCF11
Where percent inhibition (TR-FRET) equals or exceeds -3, the correct label is Condition met; where it does not, the label is Condition not met.

SMILES RECORD	LABEL CLASS
Cc1ccc(S(=O)(=O)c2cnc3ccc(Cl)cc3c2N2CCN(c3ccccc3)CC2)cc1	Condition not met

Can COc1ccccc1N1CCN(c2c(S(=O)(=O)c3ccc(C)cc3)cnc3ccc(C)cc23)CC1 be said to have percent inhibition (TR-FRET) at or above -3?
Condition not met

Can COc1ccc2ncc(S(=O)(=O)c3ccc(C)c(C)c3)c(N3CCN(C)CC3)c2c1 be said to have percent inhibition (TR-FRET) at or above -3?
Condition not met

Can CCCN(CCCNc1c2ccc(Cl)cc2nc2ccc(OC)cc12)Cc1ccccc1OC be said to have percent inhibition (TR-FRET) at or above -3?
Condition not met

Can CCOc1ccc2ncc(C(=O)c3ccc(C)cc3)c(N3CCN(C)CC3)c2c1 be said to have percent inhibition (TR-FRET) at or above -3?
Condition not met

Can COc1ccc(CNCCCNc2c3ccc(Cl)cc3nc3ccc(OC)cc23)cc1 be said to have percent inhibition (TR-FRET) at or above -3?
Condition not met

Can CN(C)c1ccc(CN(CCCCNc2ccnc3cc(Cl)ccc23)Cc2ccccc2)cc1 be said to have percent inhibition (TR-FRET) at or above -3?
Condition met

Can CCC(CC)CN(CCCCNc1ccnc2cc(Cl)ccc12)Cc1ccccc1 be said to have percent inhibition (TR-FRET) at or above -3?
Condition met
